Where do these numbers come from? They come from patent US20130029928A1.

- measurement.protocol: Phase I study CXR1002-001: plasma pharmacokinetics (LC-MS/MS)
- Assay type: in vivo, human
- conditions: human, plasma, oral, 600 mg, Patient 024, 600 mg, person, plasma, 844 hr; read-out: Concentration
metric.name: concentration at 844 h (µM)
Answers are plain numbers, in µM.

Query: # get_value(readout='concentration at 844 h', item= O=C(O)C(F)(F)C(F)(F)C(F)(F)C(F)(F)C(F)(F)C(F)(F)C(F)(F)F )
Response: 908

----------
- measurement.protocol: Phase I study CXR1002-001: plasma pharmacokinetics (LC-MS/MS)
- Assay type: in vivo, human
- conditions: human, plasma, oral, 50 mg, Patient 001 Dose 50 mg; 864 hr (Day 36); read-out: Concentration
metric.name: concentration at 864 h (µM)
Answers are plain numbers, in µM.

Query: Entry O=C(O)C(F)(F)C(F)(F)C(F)(F)C(F)(F)C(F)(F)C(F)(F)C(F)(F)F [CXR1002] has what concentration at 864 h?
Response: 8.89
